Tested on: OVCAR-3 ovarian
Assay: NCI-60 one-dose screen, 48 h (100 = growth as untreated, 0 = no growth, -100 = all killed)
Conditions: 10 µM unless noted
Protocol: Growth inhibition of the OVCAR-3 human tumor cell line is measured as a screen for anti-cancer activity. Cells are grown in 96 well plates and exposed to the test compound for 48 hours. Compounds are tested at a single concentration, which is 10^-5 M for most compounds. The reported endpoint is percent growth (GI% or GIPRCNT), where numbers from 0 - 100% represent growth inhibition, and numbers from -100% - 0 represent cell death. For example, a value of 40 represents 60% growth inhibition. […]
About 83,000 compounds went through this panel and 20% of them were active in at least one assay; those are over-represented in the sample as a whole.
Reported growth values follow for various molecules
Report as a plain number; the unit % is understood.

molecule="CCCCCCC(C)c1ccccc1O (stereo unspecified) (tested in a mixture with another compound)" result=111

Query string: Could you share what growth was measured for `OC(CNc1ccnc2cc(Cl)ccc12)CNc1ccnc2cc(Cl)ccc12` , tested on OVCAR-3 ovarian?
Result string: 43.6

Query string: What do you get for `CCOC(=O)c1c(C)[nH]c(CO)c1C` ?
Result string: 103

Query string: What do you get for `S=C(N/N=C/c1ccccn1)Nc1ccccn1` ?
Result string: -0.151

Query string: What do you get for `C/C=C1\SC(=S)NC1=O` ?
Result string: 111

Query string: What do you get for CN(Cc1cnc2nc(N)nc(N)c2n1)c1ccc(C(=O)NC(CCC(=O)O)C(=O)O)cc1 (stereo unspecified) ?
Result string: 37.8

Query string: What do you get for `N#CSCC(=O)c1ccc(Cl)cc1` ?
Result string: -25.3

Query string: What do you get for `COC(=O)c1nc(=S)[nH]c(C(=O)OC)c1C(=O)c1ccc2ccccc2c1` ?
Result string: 109

Query string: What do you get for `Cc1c2ccccc2c(C)c2c1ccc1ccccc12` ?
Result string: 105

Query string: What do you get for CCCCCCCCCCCCCCCC[N+](C)(CCO)Cc1cnc[nH]1 (stereo unspecified) ?
Result string: -36.9

Query string: What do you get for `CC(C)c1ccc2nc3ccc(C(=O)NCCN4CCN(c5ccccc5)CC4)cn3c(=O)c2c1` ?
Result string: 77.5

----------
tested on: OVCAR-4 ovarian; experiment: NCI-60 one-dose screen, 48 h; details: 100 µM
About 83,000 compounds went through this panel and 20% of them were active in at least one assay; those are over-represented in the sample as a whole. Active and inactive are the calls of the source. Rule for the calls: active = growth percent below 10; inactive = the rest.
The categories you may choose from are YES for active, NO for inactive

structure_notation=O=C(Nc1cccc(Br)c1)Oc1cccc2cccnc12 assigned_class=YES
structure_notation=CN(C)C(=O)c1ccc(SC(=S)NCc2ccccc2)cc1 assigned_class=NO
structure_notation=O=C(O)c1c(Cl)c(Cl)c(Cl)c(Cl)c1-c1c2cc(I)c(=O)c(I)c-2oc2c(I)c(O)c(I)cc12 assigned_class=NO

Query string: Any idea what this test logged for `O=C(Nc1c(Cl)cccc1Cl)Oc1cccc2cccnc12` ?
Result string: NO

----------
Reported growth values follow for various compounds
system: SW-620 colon; assay: NCI-60 one-dose screen, 48 h (100 = growth as untreated, 0 = no growth, -100 = all killed); settings: 10 µM unless noted
The panel holds about 83,000 compounds, 20% with a hit somewhere; the sample as a whole holds those more often.
Report as a plain number; the unit % is understood.

Examples with answers:
compound=NC(=S)N/N=C/c1ccc(Cl)s1 result=105
compound=NC(=S)N/N=C\c1nccc2c(C(F)(F)C(F)(F)C(F)(F)F)cccc12 result=28.6
compound=COC(=O)c1nc(=S)[nH]c(C(=O)OC)c1C(=O)c1ccccn1 result=43.3
compound=COc1ccc2nc3cc(Cl)ccc3c(NCCNc3c4ccc(Cl)cc4nc4ccc(OC)cc34)c2c1 result=-50.4
compound=CC(=Nc1ccc(N(C)C)cc1)c1ccccc1 result=42.6

Query string: Find the recorded growth belonging to `CNc1ccc(N)cc1` and report it.
Result string: 104

----------
Reported growth values follow for various molecules
tested on: MDA-MB-435 melanoma; test: NCI-60 one-dose screen, 48 h (100 = growth as untreated, 0 = no growth, -100 = all killed); settings: 10 µM unless noted
Compounds without any hit were thinned out: in the full panel of roughly 83,000, 20% have a hit. Active and inactive are the calls of the source. How the source made its calls: active means growth percent below 10; inactive means the rest.

molecule=N#CSCc1ccc(CSC#N)c(Cl)c1 readout_label=growth result="40.6% (inactive)"
molecule="Cc1ccnc(NC(c2ccccc2)c2ccc3cccnc3c2O)c1 (centres undefined)" readout_label=growth result="30.5% (inactive)"
molecule=Cc1ccnc2c1ccc1c(C)ccnc12 readout_label=growth result="32% (inactive)"
molecule=Cc1ccc2nc(C[n+]3ccc4ccccc4c3)ccc2c1 readout_label=growth result="54.7% (inactive)"
molecule=CC(=O)ON=C1C=CC(=C(C#N)c2ccccc2)C=C1 readout_label=growth result="-2.19% (active)"
molecule=OC(CNc1ccnc2cc(Cl)ccc12)CNc1ccnc2cc(Cl)ccc12 readout_label=growth result="-43.6% (active)"
molecule=COc1ccccc1/C=C\C(=O)c1ccccc1 readout_label=growth result="46.4% (inactive)"
molecule="O=C(/C=C\\c1ccccc1)N1c2ccccc2CC1c1c[nH]c2ccccc12 (centres undefined)" readout_label=growth result="83.8% (inactive)"

Query string: Find the recorded growth belonging to `O=C1c2ccccc2C(=O)N1c1ccccc1` and report it.
Result string: 98.7% (inactive)

Query string: What do you get for `CCC(CC)COC(=O)c1ccc(O)c(O)c1` ?
Result string: 69.8% (inactive)

Query string: What do you get for COC(=O)[C@@]12OC[C@]34[C@H]([C@@H](O)[C@@H]1O)[C@@]1(C)[C@H](O)C(=O)C=C(C)[C@@H]1C[C@H]3OC(=O)C(OC(C)=O)[C@@H]24 (some centres undefined) ?
Result string: -81.2% (active)

Query string: What do you get for `CN(C)C(=O)SC1=C(c2c(Cl)cccc2Cl)C(=O)c2ccccc21` ?
Result string: -13% (active)

Query string: What do you get for `Oc1ccc(/C=N/NC(=S)Nc2ccccc2)nc1` ?
Result string: 31.5% (inactive)

----------
Reported growth values follow for various molecules
test system: HCC-2998 colon; assay: NCI-60 one-dose screen, 48 h (100 = growth as untreated, 0 = no growth, -100 = all killed); conditions: 10 µM unless noted
About 83,000 compounds went through this panel and 20% of them were active in at least one assay; those are over-represented in the sample as a whole. Activity calls are given as the source filed them. The calls were made as follows: active = growth percent below 10; inactive = the rest.

molecule=CN=C(N)N/N=C(\C)c1ccc2c(c1)Cc1cc(/C(C)=N/NC(N)=NC)ccc1-2 target_system="HCC-2998 colon" readout_label=growth result="-78.7% (active)"
molecule=C[n+]1c(/C=C/c2ccc([N+](=O)[O-])cc2)ccc2ccccc21 target_system="HCC-2998 colon" readout_label=growth result="100% (inactive)"
molecule=Cc1ccc(N=C=C(c2ccccc2)c2ccccc2)cc1 target_system="HCC-2998 colon" readout_label=growth result="101% (inactive)"
molecule=CNC(=O)N/N=C/c1ccc([N+](=O)[O-])o1 target_system="HCC-2998 colon" readout_label=growth result="106% (inactive)"
molecule=CC1(C)CC([P+](c2ccccc2)(c2ccccc2)c2ccccc2)=NN1 target_system="HCC-2998 colon" readout_label=growth result="18.1% (inactive)"

Query string: Find the recorded growth belonging to O=C(CC1(O)C(=O)Nc2c(Cl)ccc(Cl)c21)c1ccc(Cl)cc1Cl (stereo unspecified) and report it.
Result string: 110% (inactive)

Query string: What do you get for `Cc1cc2nc(CS)[nH]c2cc1C` ?
Result string: 102% (inactive)

Query string: What do you get for `O=[N+]([O-])c1ccc2c(N=Nc3ccc4ccccc4c3O)c(O)cc(S(=O)(=O)O)c2c1` ?
Result string: 94.4% (inactive)

Query string: What do you get for `CCN(CC)CCOc1ccc(-c2nc3cc(Cl)ccc3s2)cc1` ?
Result string: -97.2% (active)

Query string: What do you get for `COc1cc(NS(C)(=O)=O)ccc1Nc1c2ccccc2nc2ccccc12` ?
Result string: -44.3% [2.5 µM] (active)

Query string: What do you get for `O=C1c2ccccc2C(=O)c2sc(Nc3ccc(Cl)cc3)nc21` ?
Result string: 57.6% (inactive)

Query string: What do you get for `O=C(Nc1ccc(F)cc1)ON=C1CCCCC1` ?
Result string: 106% [100 µM] (inactive)

Query string: What do you get for `CCN1/C(=C\c2cc[n+](CC)c3ccccc23)C=Cc2ccccc21` ?
Result string: 23% (inactive)

Query string: What do you get for CC1OC(OC2C(OC3CCC4(C)C(CCC5(C)C4CC=C4C6CC(C)(C)CCC6(CO)C(O)CC45C)C3(C)C)OC(C(=O)O)C(OC3OC(COC4OC(CO)C(O)C(O)C4O)C(O)C(O)C3O)C2O)C(O)C(O)C1O (stereo unspecified) ?
Result string: -81.9% (active)

Query string: What do you get for `Cc1c2ccccc2c(C)c2c1ccc1ccccc12` ?
Result string: 104% (inactive)

Query string: What do you get for CCC(CCCN(CC)CCc1ccccc1)OC(=O)c1cc(OC)c(OC)c(OC)c1 (stereo unspecified) ?
Result string: 96.4% (inactive)

Query string: What do you get for `OC(CNc1ccnc2cc(Cl)ccc12)CNc1ccnc2cc(Cl)ccc12` ?
Result string: 46.1% (inactive)

Query string: What do you get for `CN(C)c1ccc(/C=N/N=C(\C#N)[S][Sn]([Cl])([c]2ccccc2)[c]2ccccc2)cc1` ?
Result string: 63.5% (inactive)

Query string: What do you get for `Cc1cc(C(C)(CC(C)C)c2ccc(O)c(C)c2)ccc1O` ?
Result string: 103% (inactive)

Query string: What do you get for `CCCCCCCCCCCCCCCCOP(=O)([O-])OCC[N+](C)(C)C` ?
Result string: 17.7% (inactive)

Query string: What do you get for `COC(=O)c1nc(=S)[nH]c(C(=O)OC)c1C(=O)c1ccccn1` ?
Result string: 45.3% (inactive)
